# testedOn: rat α9α10 nAChR (Rattus norvegicus, UniProt P43144+Q9JLB5)
# Sequence (P43144 26-479 limits assumed): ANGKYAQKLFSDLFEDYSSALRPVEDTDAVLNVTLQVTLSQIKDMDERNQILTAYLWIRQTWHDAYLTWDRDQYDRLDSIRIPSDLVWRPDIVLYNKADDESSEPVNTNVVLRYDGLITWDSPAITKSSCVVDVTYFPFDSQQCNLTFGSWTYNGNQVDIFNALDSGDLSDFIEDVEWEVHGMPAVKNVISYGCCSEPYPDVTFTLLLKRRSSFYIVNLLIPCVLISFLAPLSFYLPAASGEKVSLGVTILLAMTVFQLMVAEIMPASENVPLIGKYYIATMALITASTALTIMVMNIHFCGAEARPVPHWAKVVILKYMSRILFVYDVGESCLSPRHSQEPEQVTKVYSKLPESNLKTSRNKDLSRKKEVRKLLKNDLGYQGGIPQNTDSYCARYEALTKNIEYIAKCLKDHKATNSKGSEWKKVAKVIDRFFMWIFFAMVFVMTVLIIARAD
# Sequence (Q9JLB5 25-447 limits assumed): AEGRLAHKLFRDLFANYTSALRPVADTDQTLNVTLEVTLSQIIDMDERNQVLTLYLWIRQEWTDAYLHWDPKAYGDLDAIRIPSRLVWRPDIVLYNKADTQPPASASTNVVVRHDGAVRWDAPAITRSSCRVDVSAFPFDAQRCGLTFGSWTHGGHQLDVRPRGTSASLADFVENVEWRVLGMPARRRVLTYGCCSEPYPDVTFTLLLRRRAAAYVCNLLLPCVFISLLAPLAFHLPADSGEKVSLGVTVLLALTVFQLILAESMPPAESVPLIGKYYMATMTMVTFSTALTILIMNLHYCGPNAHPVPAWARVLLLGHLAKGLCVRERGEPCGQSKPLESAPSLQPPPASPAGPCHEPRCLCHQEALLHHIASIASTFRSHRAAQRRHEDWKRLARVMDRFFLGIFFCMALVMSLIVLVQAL
# assayOverview: cell-based
# Format: cell-based
# condition: α9α10 nAChR IC50 (nM) Rat
Bridge positions count the residues as written; N and C are the ends. Square brackets hold non-standard residues; d marks the D form. Triazole bridges read from a SMILES are 1,4-linked. Peptide text beside a SMILES is read from it. Orn(N3) = [N-]=[N+]=NCCC[C@H](N)C(=O)O; NMeY = CN[C@@H](Cc1ccc(O)cc1)C(=O)O; Cit = NC(=O)NCCC[C@H](N)C(=O)O; Pra = C#CC[C@H](N)C(=O)O
reportedMetric: IC50 (nM)

>>> recordedresult("C[C@@H](O)[C@@H]1NC(=O)[C@@H]2Cc3cn(nn3)CCC[C@@H](C(=O)N(C)[C@@H](Cc3ccc(O)cc3)C(=O)O)NC(=O)[C@H](CCC(N)=O)NC(=O)[C@H](Cc3c[nH]c4ccccc34)NC(=O)[C@H](CCCNC(N)=O)NC(=O)[C@H](CSSC[C@H](NC(=O)CN)C(=O)N2)NC(=O)[C@H](CCCNC(=N)N)NC(=O)[C@@H]2CCCN2C(=O)[C@H](CC(=O)O)NC1=O [Ir] (H-GC[Pra]TDPRC[Cit]WQ[Orn(N3)][NMeY]-OH; disulfide 2-8; triazole 3-12)")
31

* * *

# testedOn: rat α9α10 nAChR (Rattus norvegicus, UniProt P43144+Q9JLB5)
# assayOverview: cell-based
# Type: cell-based
# condition: α9α10 nAChR IC50 (nM) Rat
Bridge positions count the residues as written; N and C are the ends. Square brackets hold non-standard residues; d marks the D form. Triazole bridges read from a SMILES are 1,4-linked. Peptide text beside a SMILES is read from it. Aha = [N-]=[N+]=NCC[C@H](N)C(=O)O; Cit = NC(=O)NCCC[C@H](N)C(=O)O; Hpra = C#CCC[C@H](N)C(=O)O
reportedMetric: IC50 (nM)

>>> recordedresult("C[C@@H](O)[C@@H]1NC(=O)[C@@H]2CCc3cn(nn3)CC[C@@H](C(=O)N[C@@H](Cc3ccc(O)cc3)C(=O)O)NC(=O)[C@H](CCC(N)=O)NC(=O)[C@H](Cc3c[nH]c4ccccc34)NC(=O)[C@H](CCCNC(N)=O)NC(=O)[C@H](CSSC[C@H](NC(=O)CN)C(=O)N2)NC(=O)[C@H](CCCNC(=N)N)NC(=O)[C@@H]2CCCN2C(=O)[C@H](CC(=O)O)NC1=O [Ih] (H-GC[Hpra]TDPRC[Cit]WQ[Aha]Y-OH; disulfide 2-8; triazole 3-12)")
8.5

* * *

# testedOn: rat α9α10 nAChR (Rattus norvegicus, UniProt P43144+Q9JLB5)
# assayOverview: cell-based
# Type: cell-based
# condition: α9α10 nAChR IC50 (nM) Rat
Bridge positions count the residues as written; N and C are the ends. Square brackets hold non-standard residues; d marks the D form. Triazole bridges read from a SMILES are 1,4-linked. Peptide text beside a SMILES is read from it. Tyr(3-I) = N[C@@H](Cc1ccc(O)c(I)c1)C(=O)O; Orn(N3) = [N-]=[N+]=NCCC[C@H](N)C(=O)O; Aha = [N-]=[N+]=NCC[C@H](N)C(=O)O; Cit = NC(=O)NCCC[C@H](N)C(=O)O; Hpra = C#CCC[C@H](N)C(=O)O; Pra = C#CC[C@H](N)C(=O)O
reportedMetric: IC50 (nM)

>>> recordedresult("C[C@@H](O)[C@@H]1NC(=O)[C@@H]2Cc3cn(nn3)CCC[C@@H](C(=O)O)NC(=O)[C@H](CCC(N)=O)NC(=O)[C@H](Cc3c[nH]c4ccccc34)NC(=O)[C@H](CCCNC(N)=O)NC(=O)[C@H](CSSC[C@H](NC(=O)CN)C(=O)N2)NC(=O)[C@H](CCCNC(=N)N)NC(=O)[C@@H]2CCCN2C(=O)[C@H](CC(=O)O)NC1=O [Iq] (H-GC[Pra]TDPRC[Cit]WQ[Orn(N3)]-OH; disulfide 2-8; triazole 3-12)")
69
>>> recordedresult("C[C@@H](O)[C@@H]1NC(=O)[C@@H]2CCC(=O)NCCCC[C@@H](C(=O)N[C@@H](Cc3ccc(O)cc3)C(N)=O)NC(=O)[C@H](CCC(N)=O)NC(=O)[C@H](Cc3ccc(O)c(I)c3)NC(=O)[C@H](CCCNC(N)=O)NC(=O)[C@H](CSSC[C@H](NC(=O)CN)C(=O)N2)NC(=O)[C@H](CCCNC(=N)N)NC(=O)[C@@H]2CCCN2C(=O)[C@H](CC(=O)O)NC1=O [Iw] (H-GCETDPRC[Cit][Tyr(3-I)]QKY-NH2; disulfide 2-8; lactam 3-12)")
36
>>> recordedresult("C[C@@H](O)[C@@H]1NC(=O)[C@@H]2CCn3cc(nn3)CC[C@@H](C(=O)N[C@@H](Cc3ccc(O)cc3)C(=O)O)NC(=O)[C@H](CCC(N)=O)NC(=O)[C@H](Cc3c[nH]c4ccccc34)NC(=O)[C@H](CCCNC(N)=O)NC(=O)[C@H](CSSC[C@H](NC(=O)CN)C(=O)N2)NC(=O)[C@H](CCCNC(=N)N)NC(=O)[C@@H]2CCCN2C(=O)[C@H](CC(=O)O)NC1=O [Ii] (H-GC[Aha]TDPRC[Cit]WQ[Hpra]Y-OH; disulfide 2-8; triazole 3-12)")
1.6
